# TEST DESCRIPTION: Selectivity index, ratio of CC50 for human […] cells to EC50 for HIV1 3B infected in human C8166 cells
# Type: toxicity, cell-based
# TEST CONTEXT: read-out: Ratio CC50/IC50
# binarize selectivity ratio: threshold 2000 inclusive, high side condition met, low side condition not met

### Prompt Could you tell me if the measured selectivity ratio of CC(C)c1c(CC2CCCCC2)nc(SCc2ccccc2)[nH]c1=O reaches 2000 or more?
### Response condition met

### Prompt Form field: selectivity ratio at least 2000? Entry: CCc1c(CC2CCCCC2)nc(SCc2ccccc2)[nH]c1=O
### Response condition not met

### Prompt API: above_or_equal(metric=selectivity ratio, cutoff=2000) for item CCc1c(CC2CCCCC2)nc(SCC(=O)c2ccccc2)[nH]c1=O
### Response condition met

### Prompt Could you please find out whether COc1ccc(C(=O)CSc2nc(CC3CCCCC3)c(C)c(=O)[nH]2)cc1 has selectivity ratio that meets 2000 or exceeds it?
### Response condition not met

### Prompt Has Cc1c(CC2CCCCC2)nc(SCC(=O)c2ccccc2)[nH]c1=O a recorded selectivity ratio greater than or equal to 2000?
### Response condition met

### Prompt Does Cc1ccnc2c1NC(=O)c1cccnc1N2C1CC1 have a reported selectivity ratio of at least 2000?
### Response condition met

### Prompt Given CC(C)c1c(Cc2ccccc2)nc(SCC(=O)c2ccccc2)[nH]c1=O , state whether its selectivity ratio is at least 2000.
### Response condition met

### Prompt Could you please find out whether CC(C)CSc1nc(CC2CCCCC2)c(C(C)C)c(=O)[nH]1 has selectivity ratio that meets 2000 or exceeds it?
### Response condition not met

* * *

# Tested on: Human immunodeficiency virus 1
# TEST DESCRIPTION: Antiviral activity against HIV1 3B infected in human PBMC assessed as protection against virus-induced cytopathogenicity after 3 days
# Type: functional, organism-based
# TEST CONTEXT: Human immunodeficiency virus 1, 3B, 72 h
MEASUREMENT KIND: EC50 (µM)
Give bare numbers, in µM.

### Prompt What EC50 value was documented for this compound, CC(C)c1c(CC2CCCCC2)nc(SCC(=O)c2ccccc2)[nH]c1=O ?
### Response 0.031

* * *

# TEST DESCRIPTION: Selectivity index, ratio of CC50 for human […] cells to EC50 for HIV1 3B infected in human C8166 cells
# Type: toxicity, cell-based
# TEST CONTEXT: read-out: Ratio CC50/IC50
Label condition met when selectivity ratio is strictly below 100000; at or above that, label condition not met.

Solved entries (count: 7):
### Prompt Quick check: selectivity ratio of COc1ccc(C(=O)CSc2nc(CC3CCCCC3)c(C(C)C)c(=O)[nH]2)cc1 under 100000?
### Response condition not met

### Prompt Is selectivity ratio strictly under 100000 for the entry Cc1cn([C@H]2C[C@H](N=[N+]=[N-])[C@@H](CO)O2)c(=O)[nH]c1=O ?
### Response condition not met

### Prompt Consider CC(C)c1c(CC2CCCCC2)nc(SCC(=O)c2ccccc2)[nH]c1=O . Does its selectivity ratio lie strictly below 100000?
### Response condition not met

### Prompt Strictly below 100000: is that where selectivity ratio of Cc1c(CC2CCCCC2)nc(SCc2ccccc2)[nH]c1=O sits?
### Response condition met

### Prompt Is 100000 strictly greater than the molecule's reported selectivity ratio? molecule: CCc1c(CC2CCCCC2)nc(SCC(=O)c2ccc(OC)cc2)[nH]c1=O
### Response condition not met

### Prompt # strict comparison: is reported selectivity ratio < 100000? input = CC(C)c1c(CC2CCCCC2)nc(SCC(=O)c2ccccc2O)[nH]c1=O
### Response condition not met

### Prompt For CCc1c(CC2CCCCC2)nc(SCC(C)C)[nH]c1=O , is the recorded selectivity ratio below the cut-off of 100000?
### Response condition met

Attention now turns to another entry.
### Prompt # check: selectivity ratio < 100000 for Cc1c(CC2CCCCC2)nc(SCC(C)C)[nH]c1=O
### Response condition met

* * *

Would you kindly list selectivity ratio for each of these compounds?
# TEST DESCRIPTION: Selectivity index, ratio of CC50 for human […] cells to EC50 for HIV1 3B infected in human C8166 cells
# Assay type: toxicity, cell-based
# TEST CONTEXT: read-out: Ratio CC50/IC50

These solved cases illustrate the format of a correct answer.
### Prompt Request the reported selectivity ratio associated with CCc1c(Cc2ccccc2)nc(SCC(=O)c2ccccc2)[nH]c1=O
### Response > 6850

### Prompt Param item = COc1ccc(C(=O)CSc2nc(Cc3ccccc3)c(C(C)C)c(=O)[nH]2)cc1 ; retrieve measured selectivity ratio.
### Response > 3390

# context switch: different compound, same selectivity ratio
### Prompt So what does the record say about selectivity ratio for CCc1c(Cc2ccccc2)nc(SCC(=O)c2ccc(OC)cc2)[nH]c1=O ?
### Response > 10500
